Tested on: LG0703-F498-PDC complex spheroid growth;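 further: luminescence taken as a proxy for viable cell amount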
Assay name: Anticancer human tumor LG0703-F498-PDC patient-derived lung adenocarcinoma cell line growth inhibition [AhR]; active means viability on the fitted dose curve at most 10% of control; inactive means the rest
Experimental conditions: second compound 10 µM; first compound 0.00949 µM
Choose one outcome from this list and give only that: active, inactive

As a guide, the following entries are already answered.
| Compound | Study target | Group label |
| --- | --- | --- |
| CC(C)CC(NC(=O)C(Cc1ccccc1)NC(=O)c1cnccn1)B(O)O (stereo not given) + Cc1cncc(-c2nc(NCCc3c[nH]c4ccccc34)c3ncn(C(C)C)c3n2)c1 | LG0703-F498-PDC complex spheroid growth | active |
| CCN(c1cc(-c2ccc(CN3CCOCC3)cc2)cc(C(=O)NCc2c(C)cc(C)[nH]c2=O)c1C)C1CCOCC1 + Cc1ccccc1N=Nc1ccc(NC(=O)c2ccnn2C)c(C)c1 | LG0703-F498-PDC complex spheroid growth | inactive |
| CCN(c1cc(-c2ccc(CN3CCOCC3)cc2)cc(C(=O)NCc2c(C)cc(C)[nH]c2=O)c1C)C1CCOCC1 + CC(CO)NC(=O)c1cc(-c2ccc(Cl)cc2)nn(-c2cnn(C)c2)c1=O | LG0703-F498-PDC complex spheroid growth | inactive |

Given CCc1c2c(nc3ccc(O)cc13)-c1cc3c(c(=O)n1C2)COC(=O)[C@]3(O)CC + Cc1ccccc1N=Nc1ccc(NC(=O)c2ccnn2C)c(C)c1 , state the outcome it received in this test.
inactive

Given Nc1ncn(C2CC(O)C(CO)S2)c(=O)n1 (stereo not given) + Cc1cncc(-c2nc(NCCc3c[nH]c4ccccc34)c3ncn(C(C)C)c3n2)c1 , state the outcome it received in this test.
active

Given CCc1c2c(nc3ccc(O)cc13)-c1cc3c(c(=O)n1C2)COC(=O)[C@]3(O)CC + Cc1cncc(-c2nc(NCCc3c[nH]c4ccccc34)c3ncn(C(C)C)c3n2)c1 , state the outcome it received in this test.
active

Given CC(C)CC(NC(=O)C(Cc1ccccc1)NC(=O)c1cnccn1)B(O)O (stereo not given) + Cc1ccccc1N=Nc1ccc(NC(=O)c2ccnn2C)c(C)c1 , state the outcome it received in this test.
inactive

Given Nc1ncn(C2CC(O)C(CO)S2)c(=O)n1 (stereo not given) + Cc1ccccc1N=Nc1ccc(NC(=O)c2ccnn2C)c(C)c1 , state the outcome it received in this test.
inactive

Given CC(C)CC(NC(=O)C(Cc1ccccc1)NC(=O)c1cnccn1)B(O)O (stereo not given) + CC(CO)NC(=O)c1cc(-c2ccc(Cl)cc2)nn(-c2cnn(C)c2)c1=O , state the outcome it received in this test.
active
